# subject-of-test: Cyclin-dependent kinase 5/CDK5 activator 1 (Homo sapiens)
# Sequence (Q00535 whole entry): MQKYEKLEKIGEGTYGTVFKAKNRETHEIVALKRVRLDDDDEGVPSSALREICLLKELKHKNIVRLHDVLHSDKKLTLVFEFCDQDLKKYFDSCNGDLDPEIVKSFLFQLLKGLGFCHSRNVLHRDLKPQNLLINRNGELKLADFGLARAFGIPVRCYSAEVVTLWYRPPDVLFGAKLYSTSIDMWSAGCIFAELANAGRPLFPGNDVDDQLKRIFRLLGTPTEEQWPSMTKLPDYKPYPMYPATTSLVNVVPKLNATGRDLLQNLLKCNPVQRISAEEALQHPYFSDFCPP
# Sequence (Q15078 whole entry, further chain): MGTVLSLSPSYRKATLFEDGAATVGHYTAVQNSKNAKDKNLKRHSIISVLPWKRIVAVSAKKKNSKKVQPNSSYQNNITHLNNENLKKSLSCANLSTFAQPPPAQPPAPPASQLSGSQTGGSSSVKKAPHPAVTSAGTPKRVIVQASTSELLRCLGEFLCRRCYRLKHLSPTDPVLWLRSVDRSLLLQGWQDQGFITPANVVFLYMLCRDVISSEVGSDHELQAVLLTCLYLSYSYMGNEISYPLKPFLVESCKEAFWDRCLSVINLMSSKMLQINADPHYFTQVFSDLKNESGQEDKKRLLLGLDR
# assay-remarks: Inhibition of human CDK5/p25 assessed as histone h1 phosphorylation in presence of ATP
Entries annotated with measured pIC50
# log scale: pIC50 equals minus log10 of the concentration in mol/L

1) CC(C)c1[nH]c(=O)c(-c2csc(-c3ccncc3)n2)cc1C(=O)OC1CCN(C)CC1    6.19
2) CCOC(=O)c1cc(-c2csc(-c3ccncc3)n2)c(=O)[nH]c1COCc1ccccc1    6.11
3) CCCc1[nH]c(=O)c(-c2csc(-c3ccncc3)n2)cc1C(=O)OCC    7.26
4) CCOC(=O)c1cc(-c2csc(-c3ccnc(NCCN(CC)CC)c3)n2)c(=O)[nH]c1C    6.86
5) CCCc1[nH]c(=O)c(-c2csc(CS(=O)(=O)c3ccccc3)n2)cc1C(=O)OCC    8.85

Let us move to another entry and its pIC50.
Dear colleague, please send me the reported pIC50 for `CCOC(=O)c1cc(-c2csc(-c3ccncc3)n2)c(=O)[nH]c1C(F)(F)F` when you can. 4.94
